Biological target: EGFR Δ19del/T790M/C797S (Homo sapiens, UniProt P00533, T790M/C797S, form not given)
Sequence (P00533 with tags, fused parts or gaps DEL746-750/T790M/C797S, form open): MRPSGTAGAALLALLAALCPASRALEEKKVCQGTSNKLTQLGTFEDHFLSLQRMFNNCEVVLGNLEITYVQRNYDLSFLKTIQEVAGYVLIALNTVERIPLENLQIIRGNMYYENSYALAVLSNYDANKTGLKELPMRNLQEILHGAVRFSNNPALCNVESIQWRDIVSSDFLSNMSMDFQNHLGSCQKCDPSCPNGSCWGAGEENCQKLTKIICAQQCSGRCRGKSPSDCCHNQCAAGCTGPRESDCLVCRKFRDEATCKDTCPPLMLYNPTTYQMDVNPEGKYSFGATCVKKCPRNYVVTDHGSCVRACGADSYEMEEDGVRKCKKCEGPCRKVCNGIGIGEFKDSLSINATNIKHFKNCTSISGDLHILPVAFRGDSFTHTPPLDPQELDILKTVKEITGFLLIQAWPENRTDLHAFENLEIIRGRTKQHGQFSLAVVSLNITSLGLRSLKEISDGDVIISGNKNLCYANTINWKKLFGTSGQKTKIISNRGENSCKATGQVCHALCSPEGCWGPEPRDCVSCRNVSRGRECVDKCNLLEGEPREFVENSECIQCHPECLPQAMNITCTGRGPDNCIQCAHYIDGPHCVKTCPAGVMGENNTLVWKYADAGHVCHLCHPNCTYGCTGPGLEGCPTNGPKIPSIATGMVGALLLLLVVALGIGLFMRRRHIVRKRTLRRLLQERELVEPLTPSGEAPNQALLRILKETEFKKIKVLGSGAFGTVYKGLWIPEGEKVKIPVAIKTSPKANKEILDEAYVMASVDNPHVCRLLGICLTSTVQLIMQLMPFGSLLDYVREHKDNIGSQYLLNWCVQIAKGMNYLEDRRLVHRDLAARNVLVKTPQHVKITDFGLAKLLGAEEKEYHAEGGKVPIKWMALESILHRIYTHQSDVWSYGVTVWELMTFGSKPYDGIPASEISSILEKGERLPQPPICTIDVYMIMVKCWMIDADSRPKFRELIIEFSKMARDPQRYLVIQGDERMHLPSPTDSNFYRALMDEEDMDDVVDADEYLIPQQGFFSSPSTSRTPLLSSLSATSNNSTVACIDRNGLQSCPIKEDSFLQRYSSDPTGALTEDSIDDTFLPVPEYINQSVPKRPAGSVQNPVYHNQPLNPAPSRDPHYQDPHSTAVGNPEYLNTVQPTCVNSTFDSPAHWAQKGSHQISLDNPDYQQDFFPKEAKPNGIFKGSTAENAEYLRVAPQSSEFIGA
Assay: Kinase inhibition assay (mobility shift)
pIC50: −log10 of the molar value.
measurement_name: pIC50

Use the examples below as a reference point.
COc1cc(Nc2ncc(Br)c(Nc3ccc4nc(C5CC5)ccc4c3P(C)(C)=O)n2)cc(C)c1N1CCOCC1 : 8.46
CCc1cc(Nc2ncc(Br)c(Nc3ccc4nc(-c5cnn(C)c5)ccc4c3P(C)(C)=O)n2)c(OC)cc1N1CCC(N2CCN(C)CC2)CC1 : 9.52
CCc1cc(Nc2ncc(Br)c(Nc3ccc4nc(C5CC5)ccc4c3P(C)(C)=O)n2)c(OC)cc1N1CCC(N2CCN(C)CC2)CC1 : 9.52

P = CCc1cc(Nc2ncc(Br)c(Nc3ccc4nc(C#N)ccc4c3P(C)(C)=O)n2)c(OC)cc1N1CCC(N2CCN(C)CC2)CC1
Q = CCc1cc(Nc2ncc(Br)c(Nc3ccc4nc(C5CC5)ccc4c3P(C)(C)=O)n2)c(OC)cc1N1CCN(C)CC1
Inquiry: Hi, I'm comparing two records. Which one has the lower pIC50, P or Q ? API: response body contains the label of the selected item.
Reply text: Q

----------
Target: Ba/F3 EGFR WT (Homo sapiens)
Sequence (P00533 whole entry, change not shown): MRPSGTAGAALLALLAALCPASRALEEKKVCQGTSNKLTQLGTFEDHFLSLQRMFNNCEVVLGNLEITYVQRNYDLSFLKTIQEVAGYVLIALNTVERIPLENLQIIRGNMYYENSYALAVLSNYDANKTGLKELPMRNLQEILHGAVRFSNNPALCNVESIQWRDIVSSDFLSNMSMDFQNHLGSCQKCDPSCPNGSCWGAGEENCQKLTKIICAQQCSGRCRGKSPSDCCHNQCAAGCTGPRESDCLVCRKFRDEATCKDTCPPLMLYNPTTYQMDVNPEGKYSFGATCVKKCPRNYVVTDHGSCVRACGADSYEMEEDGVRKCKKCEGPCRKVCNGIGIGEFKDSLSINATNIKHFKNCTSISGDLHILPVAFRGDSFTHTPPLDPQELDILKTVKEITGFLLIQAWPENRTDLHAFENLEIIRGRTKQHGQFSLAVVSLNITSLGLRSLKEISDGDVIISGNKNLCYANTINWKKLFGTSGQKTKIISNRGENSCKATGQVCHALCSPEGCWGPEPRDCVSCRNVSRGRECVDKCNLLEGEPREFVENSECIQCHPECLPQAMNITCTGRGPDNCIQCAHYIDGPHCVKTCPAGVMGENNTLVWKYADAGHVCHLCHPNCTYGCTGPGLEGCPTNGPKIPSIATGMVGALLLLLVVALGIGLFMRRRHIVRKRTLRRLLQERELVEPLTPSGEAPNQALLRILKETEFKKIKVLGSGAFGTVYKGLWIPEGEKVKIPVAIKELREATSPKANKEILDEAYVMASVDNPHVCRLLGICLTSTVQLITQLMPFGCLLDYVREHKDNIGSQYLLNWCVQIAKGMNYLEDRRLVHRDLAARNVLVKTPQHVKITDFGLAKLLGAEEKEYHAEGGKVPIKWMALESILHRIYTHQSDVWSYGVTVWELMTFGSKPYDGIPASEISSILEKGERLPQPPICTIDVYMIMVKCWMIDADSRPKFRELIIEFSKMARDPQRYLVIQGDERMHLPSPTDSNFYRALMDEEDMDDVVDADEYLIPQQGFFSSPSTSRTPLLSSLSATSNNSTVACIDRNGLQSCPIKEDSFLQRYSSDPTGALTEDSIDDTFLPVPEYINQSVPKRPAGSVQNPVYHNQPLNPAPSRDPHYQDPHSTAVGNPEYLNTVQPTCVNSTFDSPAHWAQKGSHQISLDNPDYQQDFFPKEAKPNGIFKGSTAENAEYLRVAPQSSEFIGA
Assay: Cell proliferation experiment (CellTiter Glo, 72 hours)
Type: cell-based
Settings: read-out: BaF3 EGFR WT IC50
Protocol: Experiment 2 Cell Proliferation Experiment Suspension cells: Ba/F3 cells with stable overexpression of Δ19del/T790M/C797S mutant gene, named Ba/F3-Δ19del/T790M/C797S; Ba/F3 cells with overexpression of EGFR WT, named Ba/F3 EGFR WT. […] c) Reading the luminescence signal value (Lum) using PerkinElmer reader. The cell survival inhibition rate of each well was calculated. The data was analyzed by GraphPad Prism 6.0 software. […] The IC50 of each compound was calculated as follows: […]
measurement_name: GI50 (nM)

A = COc1cc(Nc2ncc(Br)c(Nc3ccc4nc(C5CC5)ccc4c3P(C)(C)=O)n2)c(C)cc1N1CCC(OC)CC1 [Compound J-033]
B = COc1cc(N2CCC(N3CCN(C)CC3)CC2)c(-c2cnn(C(F)F)c2)cc1Nc1ncc(Br)c(Nc2ccc3nc(C4CC4)ccc3c2P(C)(C)=O)n1 [Compound J-067]
Inquiry: Hi, I'm comparing two records. Which one has the lower GI50, A or B ? API: response body contains the label of the selected item.
Reply text: B

----------
Target: Ba/F3-Δ19del/T790M/C797S (Homo sapiens, UniProt P00533, T790M/C797S, cells depend on it, form not given)
Assay: Cell proliferation experiment (CellTiter Glo, 72 hours)
Assay type: cell-based
Details: read-out: Ba/F3/EGFR Δ19del/T790M/C797S IC50
measurement_name: GI50 (nM)

Use the examples below as a reference point.
COc1cc(N2CCN(c3cnccn3)CC2)c(-c2cnn(C)c2)cc1Nc1ncc(Br)c(Nc2ccc3nc(C4CC4)ccc3c2P(C)(C)=O)n1 : 5.8
CCc1cc(Nc2ncc(Br)c(Nc3ccc4nc(C5CC5)ccc4c3P(C)(C)=O)n2)c(OC)cc1N1CCN(C)CC1 : 4.7
COc1cc(N2CCN(c3cccc(=O)n3C)CC2)c(-c2cnn(C)c2)cc1Nc1ncc(Br)c(Nc2ccc3nc(C4CC4)ccc3c2P(C)(C)=O)n1 : 1.8

1 = COc1cc(Nc2ncc(Br)c(Nc3ccc4nc(-c5cnn(C)c5)ccc4c3P(C)(C)=O)n2)c(C)cc1N1CCOCC1
2 = C#Cc1ccc2c(P(C)(C)=O)c(Nc3nc(Nc4cc(C)c(N5CCC(N6CCN(C)CC6)CC5)cc4OC)ncc3Br)ccc2n1
Inquiry: Which entry has a larger number for GI50, 1 or 2 ? API: response body contains the label of the selected item.
Reply text: 2
